# Protocol Notes: yeast display, Sf9 membrane polyspecificity reagent, FACS + sequencing; frameworks hold sequencing errors
Measured Quantity: polyreactivity (PSR sort gate)

Chain	Result Value
QVQLVESGGGLVQAGGSLRLSCAASGSTFYYYAMGWYRQAPGKERELVASISDDGSTNYADSVKGRFTISRDNAKNTVYLQMNSLKPEDTAVYYCAAVWWHQFGSAWYQMGYWGQGTQVTVSS	low polyreactivity
QVQLVESGGGIVQAGGSLRLSCAASGSSFQTNAMGWYRLAPGKERELVATINRSGDSTYYADSVKGRFTISRDNAKNTVYLQMNSLKPEDTAVYYCNKDWHSQDFSAYNSYDYWGQGTQVTVSS	low polyreactivity

====

# Protocol Notes: yeast display, Sf9 membrane polyspecificity reagent, FACS + sequencing; frameworks hold sequencing errors
Measured Quantity: polyreactivity (PSR sort gate)

Below, 5 sequences whose answers are already recorded.
Chain	polyreactivity (PSR sort gate)
QVQLVESGGGLVQAGGSLRISCAASGSNFTRYAMGWYRQAPGKERELVAAISNRGGRTYYADSVKGRFTISRDNAKNTVYLQMNSLKPEDTGVYYCNAATTRRIPQSDNYWGQGTQVTVSS	high polyreactivity
QVPLVESGGGLVQAGGSLRLSCAASGRTFGIYAMGWYRQEPGKERELVATISWRGGSTNYADSVKGRFTISRDNAKNTVYLQMNSLKPEDTAVYYCAADPCGFGYPYLTRGTDGYDYWGQGTQVTVSS	low polyreactivity
QVQLVESGGGLVQAGGSLRLSCAASGFTFDSYAMGWYRQAPRKERELVAAITSDGSTYYADSVKGRFTISRDNAKNNVYLQMNSLKAEDTAVYYCAADGISLYATAYDYWGQGTQVTVSS	low polyreactivity
QVQLVESGGGIVQAGVSLRLSCAASGSTFRDYAMGWSRPAPGKERELVAAISNSGGRTYYADSVKGRFTISRDNAKNTVYLQMYSLKPEDTAVYYCNAGRQTKWGQGTQVTVSS	high polyreactivity
QVQLVESGGGLVQAGGSLRLSCAASGRIFDYNAMGWYRQAPGKERELVASITQRGDITYYADSVKGRFTISRDNAKNTVYLQMNSLKPEDTAVYYCNADGVRVWVLPYVLYTGDYWGQGTQVTVSS	low polyreactivity

Could you report polyreactivity (PSR sort gate) for every entry in the following list?
1. QVQLVESGGGLVQAGGSLRLSCAASGGIGSYAMGWYRQAPGKERELVAVITAGGDSTYYADSVKGRFTISRDNAKNTVYLQMNSLKPEDTAVYYCNTVYRSKRYQYDYWGQGTQVTVSS
2. QVQLVESGGGLVHAGGSLRLSCAASGSIFRVYTMGWYRQAPGKERELVAAISRSGGRTYYADSVKGRFTISRDNAKNTVYLQMNSLKPEDTAVYYCATRPKVAYEYDYWGQGTQVTVSS
3. QVQLVESGGGLVQAGGSLRLSCAASGRTFVSHAMGWYRQAPGKERELVAAITNGGRTYYADSVKGRFTISRDNAKNTVYLQMNSLKPEDTAVYYCAAYVPTFKDRSRWYGRKYDYWGQGTQVTVSS
4. QVQLVESGGGLVQAGGSLRLSCAASGRTFGSNAMGWYRQAPGKERELVAVISRRAGSTYADSVKGRFTISRDNAKNTVYLQMNSLKPEDTAVYYCATRWLYHQYYYWGQGTQVTVSS
5. QVQLVESGGGLVQAGGSLRLSCAASGSIFSPYTMGWYRQAPGKEREFVAAIRWTTGSTYYADSVKGRFTISRDNAKNTVYLQMNSLKPEDTAVYYCAADPSYRSRLFRSYEYDYWGQGTQVTVSS

Reply:
high polyreactivity
high polyreactivity
low polyreactivity
high polyreactivity
high polyreactivity

Query: Value lookup for polyreactivity (PSR sort gate); key = QVQLEESGGGLVQAGGSLRLSCAASGSILVIYTMGWYRQAPGKERELVAGINYSGGRTYYADSVKGRFTISRDNAKNTVYLQMNSLKPEDTAVYYCSADYYFLDWYDYWGQGTQVTVSS
Reply: low polyreactivity

====

# Protocol Notes: yeast display, Sf9 membrane polyspecificity reagent, FACS + sequencing; frameworks hold sequencing errors
Measured Quantity: polyreactivity (PSR sort gate)

Chain	polyreactivity (PSR sort gate)
QVQLVESAGGIVQAGGSLRLSCAASGFIFVRNAIGWYRQAPGKEREFVAAINSSGGRTYYADSVKGRFTISRDNAKNTVYLQMNSLKPEDPAVYYCAARPQPKKFYYWGLGTQVTVSS	high polyreactivity
QVQLVESGGGLVQAGGSLRLSCAASGGIFRYYAMGWYRQAPGKERELVAAISSGGRTYYADSVKGRFTISRDNAKNTVYLQMNSLKPEDTAVYYCNADRYWGYDYWGQGTQVTVSS	high polyreactivity
QVQLVESGGGLVQAGGSLRLSCAASGIIFGNYAMGWYRQEPGKERELVATITWRGGSTYYADSVKGRFTISRDNAKNTVYLQMISLKPEDTAVYYCARPYASYRSFYYYGYWGQGTQVTVSS	high polyreactivity
QVQLVESGGGLVQAGGSLRLSCAASGSIFFAYDMGWYRQAPGKERELVAAINFDGTSTYYADSVKGRFTISRDNAKNTVYLQMNTLKPEDTAVYYCNKRVSPTYKGQYVYWGQGTQVTVSS	low polyreactivity
QVQLVESGGGLVQAGGSLRLSCAASGSTFGYNAMGWDRQAPGKERELVAAITGNDGTTYYADSVKGRFTISRDNAKNSVYLQMNSLKPEDSAVYYCAARPYLGYIGYEYWGQGTQVTVSS	low polyreactivity
QVQLVESGGGLVQAGGSLRLSCAASGNAMGWYRQAPGKERELVAAITYGGTTTYYADTVKGRFTISRDNAKNTVYLQMTSQKPEDTAVYYCAADNVSVATPLRYDYWGQGTQVTVSS	low polyreactivity
QLQLVESGGGLVQAVGSLRLSCAATGSIFYPYAMGWNRQAPGKERELVASISWSGGITYYADSVKGRFTISRDNAKNTVYLQMNSLKPEDTAVYYCAADFSWYLYDYDYWGQGTQVTVSS	low polyreactivity
QVQLVESGGGLVQAGGSLRLSCAASGFTFYPYAMGWYRQAPGKESEFVAAITWRGASTYYADSVKGRFTISRDNAKNTVYLQMNSLKPEDTAVYYCNARWRVPRYRYDYWGQGTQVTVSS	high polyreactivity
QVQLVESGGGLVQAGGSLRLSCAASGSTFFRYAMGWYRQAPGKERELVAAISKSGASTYYADSVKGRFTISRDNAKNTVYLQMNSLNPEDTAVYYCNADVKKSSAREWQYGYDYWGQGTQVTVSS	low polyreactivity
QVQLVESGGGLVQEGGSLRLSCAASGSIFGRNVMGWYRQAPGKERELVAAISEGGGRTYYADSVKGRFTISRDNAKNTVYLQMNSLKPEVTAVYYCAAAYFSSGYKYYYWGQGTQVTVSS	high polyreactivity

With those in mind, consider the next sequence.
Query: Value lookup for polyreactivity (PSR sort gate); key = QVQLVESGGGLVQAGGSLRLSCAASGRIFRFNAMGWYRQAPGKERELVAAITGSGGTTFYADSVKGRFTISRDNAKNTVYLQMNSLKPEDTAVYYCITLGNWRPVYNQPRYEYWGQGTQVTVSS
Reply: high polyreactivity

====

# Protocol Notes: yeast display, Sf9 membrane polyspecificity reagent, FACS + sequencing; frameworks hold sequencing errors
Measured Quantity: polyreactivity (PSR sort gate)

Below, 4 sequences whose answers are already recorded.
Chain	Measured Quantity	Result Value
QVQLVESGGGLVQAGGSLRLSCAASGYIFLYYTMGWYRQAPGKERELVAAITIGGGTYYADSVKGRFTISRDNAKNTVYLQMNSLKPEDTAVYYCNADYASYYRYSRPLEMNYWGQGTQVTVSS	polyreactivity (PSR sort gate)	low polyreactivity
QVQLVESGGGLVQAGGILRLSCAASGRIFNGYAMGWYRQAPGKERELVAAITSGGRTYADSVKGRFTISRDNAKNTVYLQMYSLKPEDTAVYYCAADAGRILFSGYDYWGQGTQVTVSS	polyreactivity (PSR sort gate)	low polyreactivity
QVQIVESGGGLVQAGGSLRLSCAASGRTFVTYAMGWYRQAPGKERELVAAISRRGGSTYYADSVKGRFTISRDNAKNTVYLQMNSLKPEDTAVYYCAADPTYRTKFGYWGQGTQVTVSS	polyreactivity (PSR sort gate)	high polyreactivity
QVQLVEAGGGLVQAGGSLRLSCAASGRTFYQNAMGWNIQAPGKERELVAAISRSGGSTYYADSVKGRFTISRDNAKITVYLQMTSLKPEDTAVYYCAADPRSYGGGYDYWGQGTQVTVSS	polyreactivity (PSR sort gate)	high polyreactivity

With those in mind, consider the next sequence.
Query: Value lookup for polyreactivity (PSR sort gate); key = QVQLVESGVGLVQAGGSLRLSCAASGRIFRTYAMGWYRQAPGKERELVAAITSGGGSTYYADSVKGRFTISRDNAKNTVYLQMNSLKPEDTAVYYCAARPGIRSYPPGYGYWGQGTQVTVSS
Reply: high polyreactivity

====

# Protocol Notes: yeast display, Sf9 membrane polyspecificity reagent, FACS + sequencing; frameworks hold sequencing errors
Measured Quantity: polyreactivity (PSR sort gate)

Below, 4 sequences whose answers are already recorded.
Chain	polyreactivity (PSR sort gate)
QVQLVESGGGLVQAGGSLRLSCAASGGTFYVYAMGWYRQAPGKERELVAAISTSDGITYYADSVKGRFTISRDNAKNTVYLQMNSLKPEDTAVYYCAAEFFSSFTYAYDYWGQGTQVTVSS	high polyreactivity
QVQLVESGGGLVQAGGILRLSCAASGRIFYVNAMGWYRQAPGKERELVAAITWIDGSTYYADSVKGRFTISRDNAKNTVYLQMNSLKPEDTAVYYCAAGGYFYSFYYWGQGTQVTVSS	low polyreactivity
QVQLVESGGGLVQAGGSLRLSCAASGSTFGQYAMGWYRQAPGKERELVATISSGSTYYADSVKGRFTISRDNAKNTVYLQMNSLKPEDTAVYYCAATRRWYKSKKTFYYWGQGTQVTVSS	high polyreactivity
QVQLVESGGGLVQAGGSLRLSCAASGSTFVKYAMGWYRQAPGKERELVAVISSAGSTNYADSVKGRFTISRDNAKNTVYLQMNSLKPEDTAVYYCNAEPTTPYWDYWAYEDDYWGQGTQVTVSS	low polyreactivity

Could you report polyreactivity (PSR sort gate) for every entry in the following list?
1. QVQLVESGGGLVQAGGSLRLSCAASGSTFGRYVMGLYRQAPGQERELVAAISKNAGSTYYADSVKGRFTISRDNAKNTVYLQMNSLKPEDTAVYYCAADWRTKGYDSLGQGTQVTVSS
2. QVQLVESGGGLVQAGGSLRLSCAASGSTFDPYAMGWYRQAPGKESELVAAISRNGGRTYYADSVKGRFTISRDNAKNTVYLQMNSLTPEDTAVYYCAARSTGYGSTGRLLWYGHWGQGTQGTVSS

Reply:
["high polyreactivity", "high polyreactivity"]

Origin of values: the nanobody polyreactivity screen of Harvey et al. (2022)
